Please go through the items and note down their pIC50.
- Experimental Target: HIV-1 reverse transcriptase K103N (Human immunodeficiency virus type 1 group M subtype B, UniProt P03366, K702N)
- Test Method Notes: DNA-dependent DNA polymerization by recombinant HIV-1 RT
- Format: biochemical
- Assay Context: From DMSO stock solution
One number for each entry, as −log10 of the molar value.

- O=C(c1cc(Cl)cc(Cl)c1)c1cc(Br)ccc1OCCn1ccc(=O)[nH]c1=O: 5.22

Next, consider the following compound.
get_value(item= Cc1cc(C)cc(C(=O)c2cc(Cl)ccc2OCCn2c3c(c(=O)[nH]c2=O)CCC3)c1 , readout=pIC50) returns 4.15

====

- Experimental Target: HIV-1 reverse transcriptase K103N+Y181C (Human immunodeficiency virus type 1 group M subtype B, UniProt P03366, K702N/Y780C)
- Test Method Notes: RNA-dependent DNA polymerization by recombinant HIV-1 RT
- Assay type: biochemical
- Assay Context: From DMSO stock solution
Metric: pIC50
One number for each entry, as −log10 of the molar value.

Value of pIC50 reported for the compound Cc1cc(C)cc(C(=O)c2cc(Cl)ccc2OCCn2c3c(c(=O)[nH]c2=O)CCC3)c1 is 4.10

====

- Experimental Target: HIV-1 reverse transcriptase Y181C (Human immunodeficiency virus type 1 group M subtype B, UniProt P03366, Y780C)
- Test Method Notes: RNA-dependent DNA polymerization by recombinant HIV-1 RT
- Format: biochemical
- Assay Context: Complex with HC-PGC (M5P21OL)
Metric: pIC50
Give bare numbers, as −log10 of the molar value.

Lab book: pIC50 of Cc1cc(C)cc(C(=O)c2cc(Cl)ccc2OCCn2c3c(c(=O)[nH]c2=O)CCC3)c1 noted as 4.40

====

- Experimental Target: HIV-1 reverse transcriptase K103N (Human immunodeficiency virus type 1 group M subtype B, UniProt P03366, K702N)
- Test Method Notes: RNA-dependent DNA polymerization by recombinant HIV-1 RT
- Assay type: biochemical
- Assay Context: From DMSO stock solution
Task for the reader: assign each of the following compounds its reported IC50.

• Cc1cc(C)cc(C(=O)c2cc(Cl)ccc2OCCn2c3c(c(=O)[nH]c2=O)CCC3)c1 [Z107] = 40 µM

Next compound, please.
Form field IC50, entry Cc1cc(C)cc(C(=O)c2cc(C)ccc2OCCn2ccc(=O)[nH]c2=O)c1 [Z007] : > 100 µM

====

- Experimental Target: HIV-1 reverse transcriptase K103N (Human immunodeficiency virus type 1 group M subtype B, UniProt P03366, K702N)
- Test Method Notes: RNA-dependent DNA polymerization by recombinant HIV-1 RT
- Format: biochemical
- Assay Context: Complex with HC-PGC (M5P21OL)
Metric: pIC50
Numbers only, as −log10 of the molar value.

# pIC50 of Cc1cc(C)cc(C(=O)c2cc(Cl)ccc2OCCn2c3c(c(=O)[nH]c2=O)CCC3)c1 = 4.00

====

- Experimental Target: HIV-1 reverse transcriptase K103N (Human immunodeficiency virus type 1 group M subtype B, UniProt P03366, K702N)
- Test Method Notes: DNA-dependent DNA polymerization by recombinant HIV-1 RT
- Assay type: biochemical
- Assay Context: Complex with HC-PGC (M5P21OL)
pIC50: −log10 of the molar value.
Field: pIC50. Provide a value for each of the compounds that follow.

The examples below pair each entry with its known result.
• O=C(c1cc(Cl)cc(Cl)c1)c1cc(Br)ccc1OCCn1ccc(=O)[nH]c1=O [Z011] = < 4.00
• Cc1cc(C)cc(C(=O)c2cc(C)ccc2OCCn2ccc(=O)[nH]c2=O)c1 [Z007] = < 4.00

Would you kindly look at the next entry?
Measured pIC50, Cc1cc(C)cc(C(=O)c2cc(Cl)ccc2OCCn2c3c(c(=O)[nH]c2=O)CCC3)c1 [Z107] : 4.02

====

- Experimental Target: HIV-1 reverse transcriptase V106A (Human immunodeficiency virus type 1 group M subtype B, UniProt P03366, V705A)
- Test Method Notes: RNA-dependent DNA polymerization by recombinant HIV-1 RT
- Type: biochemical
Metric: IC50

• Cc1cc(C)cc(C(=O)c2cc(Cl)ccc2OCCn2c3c(c(=O)[nH]c2=O)CCC3)c1 = > 100 µM

Now for a further compound.
// sample Cc1cc(C)cc(C(=O)c2cc(C)ccc2OCCn2ccc(=O)[nH]c2=O)c1 , its IC50 was > 100 µM

====

- Experimental Target: HIV-1 reverse transcriptase G190A (Human immunodeficiency virus type 1 group M subtype B, UniProt P03366, G789A)
- Test Method Notes: DNA-dependent DNA polymerization by recombinant HIV-1 RT
- Format: biochemical
- Assay Context: Complex with HC-PGC (M5P21OL)
Kindly state IC50 for each of the entries shown.
Numbers only, in nM.

* O=C(c1cc(Cl)cc(Cl)c1)c1cc(Br)ccc1OCCn1ccc(=O)[nH]c1=O [Z011] | 2600

Now examine the next entry.
Per the records, this molecule ( Cc1cc(C)cc(C(=O)c2cc(Cl)ccc2OCCn2c3c(c(=O)[nH]c2=O)CCC3)c1 [Z107] ) has IC50 equal to 900

====

- Experimental Target: HIV-1 reverse transcriptase Wild type (Human immunodeficiency virus type 1 group M subtype B)
- Test Method Notes: DNA-dependent DNA polymerization by recombinant HIV-1 RT
- Format: biochemical
- Assay Context: From DMSO stock solution
Metric: IC50 (µM)
Give bare numbers, in µM.

Worked examples, 2 compounds total:
• Cc1cc(C)cc(C(=O)c2cc(Cl)ccc2OCCn2c3c(c(=O)[nH]c2=O)CCC3)c1 = 0.7
• O=C(c1cc(Cl)cc(Cl)c1)c1cc(Br)ccc1OCCn1ccc(=O)[nH]c1=O = 0.7

Let's switch to this compound now.
In plain terms, Cc1cc(C)cc(C(=O)c2cc(C)ccc2OCCn2ccc(=O)[nH]c2=O)c1 has a documented IC50 of 40

====

- Experimental Target: HIV-1 reverse transcriptase L100I (Human immunodeficiency virus type 1 group M subtype B, UniProt P03366, L699I)
- Test Method Notes: DNA-dependent DNA polymerization by recombinant HIV-1 RT
- Format: biochemical
- Assay Context: Complex with HC-PGC (M5P21OL)
Metric: IC50

• Cc1cc(C)cc(C(=O)c2cc(C)ccc2OCCn2ccc(=O)[nH]c2=O)c1 = > 100 µM

Quick batch: IC50 for everything below.
1. Cc1cc(C)cc(C(=O)c2cc(Cl)ccc2OCCn2c3c(c(=O)[nH]c2=O)CCC3)c1
2. O=C(c1cc(Cl)cc(Cl)c1)c1cc(Br)ccc1OCCn1ccc(=O)[nH]c1=O

1.5 µM
> 100 µM

====

- Experimental Target: HIV-1 reverse transcriptase Y181C (Human immunodeficiency virus type 1 group M subtype B, UniProt P03366, Y780C)
- Test Method Notes: DNA-dependent DNA polymerization by recombinant HIV-1 RT
- Assay type: biochemical
- Assay Context: Complex with HC-PGC (M5P21OL)
Assign pIC50 to each entry below.
Answers are plain numbers, as −log10 of the molar value.

• Cc1cc(C)cc(C(=O)c2cc(Cl)ccc2OCCn2c3c(c(=O)[nH]c2=O)CCC3)c1 [Z107] = 5.72

Entry O=C(c1cc(Cl)cc(Cl)c1)c1cc(Br)ccc1OCCn1ccc(=O)[nH]c1=O [Z011] ; pIC50 = 4.66

====

- Experimental Target: HIV-1 reverse transcriptase Y181C (Human immunodeficiency virus type 1 group M subtype B, UniProt P03366, Y780C)
- Test Method Notes: DNA-dependent DNA polymerization by recombinant HIV-1 RT
- Assay type: biochemical
- Assay Context: From DMSO stock solution
Metric: IC50

* O=C(c1cc(Cl)cc(Cl)c1)c1cc(Br)ccc1OCCn1ccc(=O)[nH]c1=O | 1.4 µM
* Cc1cc(C)cc(C(=O)c2cc(C)ccc2OCCn2ccc(=O)[nH]c2=O)c1 | > 100 µM

// field: IC50; key: Cc1cc(C)cc(C(=O)c2cc(Cl)ccc2OCCn2c3c(c(=O)[nH]c2=O)CCC3)c1 ; value = 6 µM

====

- Experimental Target: HIV-1 reverse transcriptase G190A (Human immunodeficiency virus type 1 group M subtype B, UniProt P03366, G789A)
- Test Method Notes: RNA-dependent DNA polymerization by recombinant HIV-1 RT
- Type: biochemical
- Assay Context: Complex with HC-PGC (M5P21OL)
Metric: IC50 (µM)
Numbers only, in µM.

Looking up Cc1cc(C)cc(C(=O)c2cc(Cl)ccc2OCCn2c3c(c(=O)[nH]c2=O)CCC3)c1 , I see its IC50 listed as 70

====

- Experimental Target: HIV-1 reverse transcriptase Wild type (Human immunodeficiency virus type 1 group M subtype B, UniProt P03366)
- Test Method Notes: biochemical
- Assay Context: RNA-dependent DNA polymerization, IC50, Wild type RT; From DMSO stock solution
Give pIC50 for every item shown.
Answers are plain numbers, as −log10 of the molar value.

* Cc1cc(C)cc(C(=O)c2cc(Cl)ccc2OCCn2c3c(c(=O)[nH]c2=O)CCC3)c1 | 5.52

We next turn to a different molecule, shown below.
Note to self: pIC50 recorded for Cc1cc(C)cc(C(=O)c2cc(C)ccc2OCCn2ccc(=O)[nH]c2=O)c1 was 4.30

Recorded values, source paper PMC5116409.
